# Test system: UniProt:P07374
# Sequence (P07374 whole entry, looked up): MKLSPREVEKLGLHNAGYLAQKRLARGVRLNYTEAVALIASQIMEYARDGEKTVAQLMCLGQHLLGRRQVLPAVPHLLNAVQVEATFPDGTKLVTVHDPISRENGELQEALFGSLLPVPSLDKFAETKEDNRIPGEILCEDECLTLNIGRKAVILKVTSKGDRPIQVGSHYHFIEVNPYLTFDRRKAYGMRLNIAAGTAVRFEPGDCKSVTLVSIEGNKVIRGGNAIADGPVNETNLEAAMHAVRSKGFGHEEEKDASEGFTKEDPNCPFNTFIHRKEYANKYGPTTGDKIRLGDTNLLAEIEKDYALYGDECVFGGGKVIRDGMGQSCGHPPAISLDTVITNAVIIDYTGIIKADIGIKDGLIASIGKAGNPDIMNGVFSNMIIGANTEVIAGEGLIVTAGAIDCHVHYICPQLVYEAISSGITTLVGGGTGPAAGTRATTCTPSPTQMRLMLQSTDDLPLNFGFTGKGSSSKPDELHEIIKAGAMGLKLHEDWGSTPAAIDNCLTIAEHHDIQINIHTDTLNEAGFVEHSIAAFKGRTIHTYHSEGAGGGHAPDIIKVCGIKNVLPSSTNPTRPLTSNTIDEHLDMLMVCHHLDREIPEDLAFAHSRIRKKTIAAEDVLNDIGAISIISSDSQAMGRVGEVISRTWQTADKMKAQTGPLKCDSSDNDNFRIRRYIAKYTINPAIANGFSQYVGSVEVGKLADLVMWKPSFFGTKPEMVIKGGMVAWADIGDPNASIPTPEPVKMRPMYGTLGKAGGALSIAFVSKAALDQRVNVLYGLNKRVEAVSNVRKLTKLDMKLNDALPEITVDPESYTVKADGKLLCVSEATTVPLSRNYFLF
List of IC50 values.
Quantity: IC50 (µM)

compound="CC(c1ccc(-c2ccccc2)c(F)c1)c1nnc(-c2cc([N+](=O)[O-])ccc2Cl)o1 (stereo not shown)" recorded_measurement=41
compound="CC(c1ccc(-c2ccccc2)c(F)c1)c1nnc(-c2cccc([N+](=O)[O-])c2)o1 (stereo not shown)" recorded_measurement=41
compound="CC(c1ccc(-c2ccccc2)c(F)c1)c1nnc(-c2ccc(-c3ccccc3)c(F)c2)o1 (stereo not shown)" recorded_measurement=41
compound="CSc1ccc(-c2nnc(C(C)c3ccc(-c4ccccc4)c(F)c3)o2)cc1 (stereo not shown)" recorded_measurement=34
